Reported TGI values are given for each entry in this list.
System: MDA-MB-435
Assay: NCI tumour cell line growth inhibition, 48 h
All answers are understood in µM, so give the number only.

Some entries whose results are on file:
# input # TGI lookup, item O=C(c1ccco1)c1c(C(F)(F)F)n([O-])c2cc(Cl)c(Cl)cc2[n+]1=O
# output 1.81

# input # TGI lookup, item N/C(=N\O)c1cn(C2OC(CO)C(O)C2O)c2ncnc(N)c12 (stereo not drawn)
# output 0.263

# input # TGI lookup, item COc1ccc(Cc2nc3cc(C(F)(F)F)ccc3n2C[C@@H]2CCCN3CCCCC23)cc1 (stereo partly drawn)
# output 26.8

# input # TGI lookup, item COc1ccc2c(c1)c(-c1nc(-c3cn(C)c4ncccc34)cs1)cn2CCCCN1CCCCC1
# output 3.04

Further cases:
# input # TGI lookup, item Cc1c(S(=O)(=O)/N=C(\NO)Nc2ccc(Cl)cc2)sc2ccc(Cl)cc12
# output 33.7

# input # TGI lookup, item COc1cc(F)c(F)c(F)c1C(=O)c1cnc(NC2CCN(S(C)(=O)=O)CC2)nc1N
# output 7.18
